- Tested on: SK-LU-1
- ASSAY_DETAILS: relative viability (nuclei count vs DMSO), 5 days (fraction); higher = more cells survive
- CONDITION: first compound 0.4 µM

{"COMPOUND": "O=C(O)c1ccc(-c2c[nH]c3ncc(-c4ccccc4)cc23)cc1C1CCCC1 + O=C(CCCCCCC(=O)Nc1ccccc1)NO [Vorinostat] (partner 1 µM)", "SYSTEM_UNDER_TEST": "SK-LU-1", "relative viability": 0.684}
{"COMPOUND": "O=C(O)c1ccc(-c2c[nH]c3ncc(-c4ccccc4)cc23)cc1C1CCCC1 + C[C@@H](Oc1cc(-c2cnn(C3CCNCC3)c2)cnc1N)c1c(Cl)ccc(F)c1Cl [Crizotinib] (partner 1 µM)", "SYSTEM_UNDER_TEST": "SK-LU-1", "relative viability": 0.719}
{"COMPOUND": "O=C(O)c1ccc(-c2c[nH]c3ncc(-c4ccccc4)cc23)cc1C1CCCC1 + CS(=O)(=O)CCNCc1ccc(-c2ccc3ncnc(Nc4ccc(OCc5cccc(F)c5)c(Cl)c4)c3c2)o1 [Lapatinib] (partner 2 µM)", "SYSTEM_UNDER_TEST": "SK-LU-1", "relative viability": 0.771}
{"COMPOUND": "O=C(O)c1ccc(-c2c[nH]c3ncc(-c4ccccc4)cc23)cc1C1CCCC1 + CCNC(=O)c1noc(-c2cc(C(C)C)c(O)cc2O)c1-c1ccc(CN2CCOCC2)cc1 [Luminespib] (partner 0.01 µM)", "SYSTEM_UNDER_TEST": "SK-LU-1", "relative viability": 0.231}
{"COMPOUND": "O=C(O)c1ccc(-c2c[nH]c3ncc(-c4ccccc4)cc23)cc1C1CCCC1 + C[C@]1(O)C[C@@H](c2nc(-c3ccc4ccc(-c5ccccc5)nc4c3)c3c(N)nccn32)C1 [Linsitinib] (partner 1 µM)", "SYSTEM_UNDER_TEST": "SK-LU-1", "relative viability": 0.943}

====

- System: NCI-H1734
- ASSAY_DETAILS: relative viability (nuclei count vs DMSO), 5 days (fraction); higher = more cells survive
- CONDITION: first compound 2.53 µM
This section presents compounds with their documented relative viability values.
ASSAY_ENDPOINT: relative viability

{"COMPOUND": "Oc1nc(-c2ccc(C(F)(F)F)cc2)nc2c1CSCC2 [XAV939] + CC(=O)Nc1cccc(-n2c(=O)n(C3CC3)c(=O)c3c(Nc4ccc(I)cc4F)n(C)c(=O)c(C)c32)c1 [Trametinib] (partner 0.02 µM)", "VAL": 0.647}
{"COMPOUND": "Oc1nc(-c2ccc(C(F)(F)F)cc2)nc2c1CSCC2 [XAV939] + COc1cccc2cc(-c3nc([C@H]4CC[C@H](C(=O)O)CC4)n4ncnc(N)c34)[nH]c12 [OSI-027] (partner 0.5 µM)", "VAL": 0.51}
{"COMPOUND": "Oc1nc(-c2ccc(C(F)(F)F)cc2)nc2c1CSCC2 [XAV939] + CC1(C)CCC(c2ccc(Cl)cc2)=C(CN2CCN(c3ccc(C(=O)NS(=O)(=O)c4ccc(N[C@H](CCN5CCOCC5)CSc5ccccc5)c(S(=O)(=O)C(F)(F)F)c4)cc3)CC2)C1 [Navitoclax] (partner 0.5 µM)", "VAL": 0.855}
{"COMPOUND": "Oc1nc(-c2ccc(C(F)(F)F)cc2)nc2c1CSCC2 [XAV939] + Cc1nc(NC(=O)N2CCC[C@H]2C(N)=O)sc1-c1ccnc(C(C)(C)C(F)(F)F)c1 [Alpelisib] (partner 2 µM)", "VAL": 0.606}
{"COMPOUND": "C=C1C(=O)O[C@@H](CCCCCCCC)[C@@H]1C(=O)O [C-75] + O=C(CCCCCCC(=O)Nc1ccccc1)NO [Vorinostat] (partner 1 µM)", "VAL": 0.538}
